TARGET ENTITY: CYP3A4 (Homo sapiens)
Sequence (P08684 2-503): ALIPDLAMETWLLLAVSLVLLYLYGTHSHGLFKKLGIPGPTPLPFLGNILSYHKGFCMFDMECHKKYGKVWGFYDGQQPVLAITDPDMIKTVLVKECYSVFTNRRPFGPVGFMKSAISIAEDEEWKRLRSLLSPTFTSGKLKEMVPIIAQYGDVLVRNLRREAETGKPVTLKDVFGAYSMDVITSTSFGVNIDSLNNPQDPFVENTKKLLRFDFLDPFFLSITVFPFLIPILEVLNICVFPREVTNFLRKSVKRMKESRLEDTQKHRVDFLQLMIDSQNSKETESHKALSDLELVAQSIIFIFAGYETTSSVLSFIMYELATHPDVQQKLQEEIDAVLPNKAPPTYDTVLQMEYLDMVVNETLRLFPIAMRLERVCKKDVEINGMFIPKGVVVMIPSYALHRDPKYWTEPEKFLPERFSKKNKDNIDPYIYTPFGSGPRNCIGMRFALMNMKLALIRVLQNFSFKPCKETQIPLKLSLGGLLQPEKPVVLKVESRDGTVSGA
METHOD NOTES: in vitro CYP3A4 inhibition
Assay type: biochemical
QUANTITY: IC50 (nM)
Please state the figure in nM; there is no need to write the unit.

Any idea what IC50 was measured for Cc1cn(-c2ccnc(N[C@@H]3CCN(C(=O)c4nccs4)C3)n2)c(-c2ccccc2)n1 [10a] ? 940

====

QUANTITY: pIC50
Keep in mind that pIC50 stands for -log10 of concentration in molar terms.

Request - read-out pIC50 | tested on PfPKG (Plasmodium falciparum, UniProt Q8I719) | compound CN1CCC(c2cc(-c3ccc(F)cc3)c(-c3ccncc3)[nH]2)CC1 [compound 5, pyrrole 5] 7.66
